- measured_on: UniProt:Q7ZJM1
- assay_text: Inhibition of Human immunodeficiency virus 1 integrase strand transfer activity after 30 mins by polyacrylamide gel electrophoresis
result_type: pIC50
// pIC50 is dimensionless: -log10 of concentration (M)

smiles_text=O=C(O)C(=O)CC(=O)c1ccc2c(ccc3c(F)cccc32)c1 value_reported=5.40
smiles_text=O=C(O)C(=O)CC(=O)c1ccc2c(ccc3ccc(Cl)cc32)c1 value_reported=5.89
smiles_text=O=C(O)C(=O)CC(=O)c1ccc2ccc3cc(F)ccc3c2c1F value_reported=5.10
smiles_text=O=C(O)C(=O)CC(=O)c1ccc2ccc3c(Cl)cccc3c2c1 value_reported=5.92
smiles_text=O=C(O)C(=O)CC(=O)c1ccc2ccc3ccccc3c2c1F value_reported=4.20

[ask] Which pIC50 is listed for COc1ccc2c(c1)cc(C(=O)CC(=O)C(=O)O)c1c(F)cccc12 ?
[reply] 5.22

[ask] Which pIC50 is listed for O=C(O)C(=O)CC(=O)c1ccc2c(ccc3cc(Cl)ccc32)c1 ?
[reply] 5.85

###

- measured_on: Human immunodeficiency virus type 1 integrase (Human immunodeficiency virus 1)
- Sequence (Q7ZJM1 whole entry): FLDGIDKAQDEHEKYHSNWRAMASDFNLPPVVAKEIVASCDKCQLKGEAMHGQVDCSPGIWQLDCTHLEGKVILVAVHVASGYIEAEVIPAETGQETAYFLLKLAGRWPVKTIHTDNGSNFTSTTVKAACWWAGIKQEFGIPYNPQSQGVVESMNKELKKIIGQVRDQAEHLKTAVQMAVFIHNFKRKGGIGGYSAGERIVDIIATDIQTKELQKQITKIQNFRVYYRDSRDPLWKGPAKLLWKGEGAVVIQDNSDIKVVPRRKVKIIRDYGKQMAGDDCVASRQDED
- assay_text: Inhibition of Human immunodeficiency virus 1 integrase-mediated 3'-processing after 30 mins by polyacrylamide gel electrophoresis
result_type: IC50

# annotated cases, reported IC50 shown
smiles_text=O=C(O)C(=O)CC(=O)c1ccc2c(ccc3ccc(Cl)cc32)c1 value_reported="5 µM"
smiles_text=O=C(O)C(=O)CC(=O)c1ccc2ccc3ccccc3c2c1F value_reported="83 µM"
smiles_text=COc1ccc2c(c1)cc(C(=O)CC(=O)C(=O)O)c1c(F)cccc12 value_reported="44 µM"
smiles_text=O=C(O)C(=O)CC(=O)c1ccc2c(ccc3c(F)cccc32)c1 value_reported="35 µM"

Now, please, on to the next compound.
[ask] Which IC50 is listed for O=C(O)C(=O)CC(=O)c1ccc2ccc3cc(F)ccc3c2c1F ?
[reply] 63 µM

###

- Test system: Vero
- assay_text: Cytotoxicity against african green monkey Vero cells
- Assay type: cell-based
- experimental_parameters: Chlorocebus sabaeus
result_type: pIC50
// pIC50 is dimensionless: -log10 of concentration (M)

smiles_text=O=C(O)C(=O)CC(=O)c1ccc2c(ccc3cc(Cl)ccc32)c1 value_reported=5.14

Now, please, on to the next compound.
[ask] Which pIC50 is listed for O=C(O)C(=O)CC(=O)c1ccc2c(ccc3ccc(Cl)cc32)c1 ?
[reply] 5.35

###

- measured_on: Human immunodeficiency virus type 1 integrase (Human immunodeficiency virus 1)
- assay_text: Inhibition of Human immunodeficiency virus 1 integrase strand transfer activity after 30 mins by polyacrylamide gel electrophoresis
This listing pairs compounds with measured pIC50.
// pIC50 is dimensionless: -log10 of concentration (M)

smiles_text=O=C(O)C(=O)CC(=O)c1ccc2ccc3c(F)cccc3c2c1 measured_on="Human immunodeficiency virus type 1 integrase (Human immunodeficiency virus 1)" value_reported=5.52
smiles_text=COc1ccc2c(c1)cc(C(=O)CC(=O)C(=O)O)c1ccccc12 measured_on="Human immunodeficiency virus type 1 integrase (Human immunodeficiency virus 1)" value_reported=5.52

[ask] Which pIC50 is listed for O=C(O)C(=O)CC(=O)c1ccc2c(ccc3c(Cl)cccc32)c1 ?
[reply] 5.40

###

This listing pairs molecules with measured IC50.
- measured_on: Human immunodeficiency virus type 1 integrase (Human immunodeficiency virus 1)
- assay_text: Inhibition of Human immunodeficiency virus 1 integrase-mediated 3'-processing after 30 mins by polyacrylamide gel electrophoresis
Give a bare numeral; the unit µM is implied.

smiles_text=O=C(O)C(=O)CC(=O)c1ccc2ccc3c(F)cccc3c2c1 measured_on="Human immunodeficiency virus type 1 integrase (Human immunodeficiency virus 1)" value_reported=11
smiles_text=O=C(O)C(=O)CC(=O)c1ccc2ccc3c(Cl)cccc3c2c1 measured_on="Human immunodeficiency virus type 1 integrase (Human immunodeficiency virus 1)" value_reported=11
smiles_text=O=C(O)C(=O)CC(=O)c1ccc2c(ccc3cc(Cl)ccc32)c1 measured_on="Human immunodeficiency virus type 1 integrase (Human immunodeficiency virus 1)" value_reported=12
smiles_text=COc1ccc2c(c1)cc(C(=O)CC(=O)C(=O)O)c1ccccc12 measured_on="Human immunodeficiency virus type 1 integrase (Human immunodeficiency virus 1)" value_reported=32

[ask] Which IC50 is listed for O=C(O)C(=O)CC(=O)c1ccc2c(ccc3c(Cl)cccc32)c1 ?
[reply] 19
